Cited source for all entries: patent US20230087118A1

# system: UniProtKB Q9NWZ3
# testMethodNotes: biochemical
readoutLabel: IC50 (nM)

Use the examples below as a reference point.
Endpoint output: IC50 of CC(C)Oc1cc2nc(C34CCC(C)(C3)OC4)cn2cc1C(=O)Nc1ccn(C(F)(F)F)n1 (stereo not drawn) . Value?
3.8

Endpoint output: IC50 of CCOc1nc(C(=O)Nc2cccc(C(F)F)n2)cn2cc([C@]34CC[C@](C)(C3)OC4)nc12 (single isomer, unassigned) . Value?
1.2

Endpoint output: IC50 of CC12CC(c3cn4cc(C(=O)Nc5cccn(C(F)F)c5=O)c(OCCF)cc4n3)(CO1)C2 . Value?
1.5

Endpoint output: IC50 of CC(C)Oc1nc2nc(C34COC(CF)(C3)C4)cn2cc1C(=O)Nc1cccc(C(F)F)n1 . Value?
0.3

Endpoint output: IC50 of CC(C)Oc1nc2nc(C34COC(C)(C3)C4)cn2cc1C(=O)Nc1cccc(OC(F)F)n1 . Value?
0.8

Endpoint output: IC50 of CCOc1nc(C(=O)Nc2cccc(C)c2F)cn2cc(C34COC(C)(C3)C4)nc12 . Value?
4.7

I. CC(C)Oc1nc2nc(C34COC(C)(C3)C4)cn2cc1C(=O)Nc1cccc(-c2cnoc2)n1
II. CC12CC(c3cn4cc(C(=O)Nc5ccn(C6CCC6)n5)c(OC5CCC5)cc4n3)(CO1)C2
Of I and II , whose reported IC50 is the larger number? When you have decided, please share the label of that item.
II
(II: 11.1 nM, I: 0.7 nM)

* * *

# system: IRAK4 (Homo sapiens, UniProt Q9NWZ3)
# Sequence (Q9NWZ3 whole entry): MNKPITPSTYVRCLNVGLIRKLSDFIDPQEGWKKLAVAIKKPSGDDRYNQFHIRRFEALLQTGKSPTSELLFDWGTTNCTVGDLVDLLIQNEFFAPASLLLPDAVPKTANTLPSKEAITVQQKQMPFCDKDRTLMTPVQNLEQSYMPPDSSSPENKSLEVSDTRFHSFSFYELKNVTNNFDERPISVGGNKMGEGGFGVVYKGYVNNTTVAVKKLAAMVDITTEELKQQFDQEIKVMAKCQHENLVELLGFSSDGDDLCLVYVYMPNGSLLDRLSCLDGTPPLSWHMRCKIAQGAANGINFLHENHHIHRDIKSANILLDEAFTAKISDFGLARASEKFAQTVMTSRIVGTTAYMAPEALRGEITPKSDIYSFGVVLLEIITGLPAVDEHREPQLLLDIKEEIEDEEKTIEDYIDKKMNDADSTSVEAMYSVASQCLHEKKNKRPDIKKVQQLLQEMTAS
# testMethodNotes: biochemical
readoutLabel: IC50 (nM)

Endpoint output: IC50 of CC1(C)CC(Oc2cc3nc(C4CC4)cn3cc2C(=O)Nc2cccn(C(F)F)c2=O)C1 . Value?
9.9

Endpoint output: IC50 of CCOc1nc(C(=O)Nc2ccc(F)cc2OC)cn2cc(C34COC(C)(C3)C4)nc12 . Value?
2.3

Endpoint output: IC50 of O=C(Nc1cccn(C(F)F)c1=O)c1cn2cc(C3CC3)nc2cc1OC1CCOC1 (centres unmarked) . Value?
8.4

Endpoint output: IC50 of COc1ncccc1NC(=O)c1cn2cc([C@@]34CC[C@@](C)(C3)OC4)nc2c(OC)n1 (single isomer, unassigned) . Value?
3.2

P. Cc1cnc2c(NC(=O)c3cn4cc(C56CCC(C)(C5)OC6)nc4cc3OC3CCC3)cnn2c1 (centres unmarked)
Q. COc1ncccc1NC(=O)c1cn2cc(C34COC(C)(C3)C4)nc2c(C)c1OC
Of P and Q , whose reported IC50 is the larger number? When you have decided, please share the label of that item.
Q
(Q: 12.5 nM, P: 0.3 nM)

I. CCOc1nc(C(=O)Nc2cccc(Cl)c2F)cn2cc(C34COC(C)(C3)C4)nc12
II. COc1cc2nc(C3CCOCC3)cn2cc1C(=O)Nc1ncnc2cccnc12
Of I and II , whose reported IC50 is the larger number? When you have decided, please share the label of that item.
II

* * *

# system: IRAK4 (Homo sapiens)
# testMethodNotes: biochemical
pIC50: −log10 of the molar value.
readoutLabel: pIC50

Endpoint output: pIC50 of COc1ncccc1NC(=O)c1cn2cc(C34COC(C)(C3)C4)nc2c(OC)n1 . Value?
8.51

Endpoint output: pIC50 of CC12CC(c3cn4cc(C(=O)Nc5ccn(CC6CC6)n5)c(OC5CCC5)cc4n3)(CO1)C2 . Value?
7.73

Endpoint output: pIC50 of COc1cc2nc(C3CCOCC3)cn2cc1C(=O)Nc1cccc2c1OCCC2 . Value?
8.80

Endpoint output: pIC50 of COc1ncccc1NC(=O)c1cn2cc(C3CC3)nc2cc1OC1CCCC1 . Value?
8.09

Endpoint output: pIC50 of CC(C)Oc1nc2nc(C34COC(C)(C3)C4)cn2cc1C(=O)Nc1cccc2ncnn12 . Value?
9.70

Endpoint output: pIC50 of CCn1cccc(NC(=O)c2cn3cc(C4CCOCC4)nc3cc2OC)c1=O . Value?
7.36

P. CC(C)Oc1nc(C(=O)Nc2cccc(C(F)F)n2)cn2cc(C34COC(CF)(C3)C4)nc12
Q. COc1cc2nc(C3CCOCC3)cn2cc1C(=O)Nc1cccnc1C(C)C
Just tell me: smaller pIC50 value, P or Q ? When you have decided, please share the label of that item.
Q
(Q: 6.83, P: 7.98)

* * *

# system: IRAK4 (Homo sapiens)
# testMethodNotes: biochemical
# studyConditions: IRAK4 Biochemical Assay (1 mM ATP, 2 h) IC50 (μM), 1 mM ATP, 2 h, 100 pM IRAK4
Structures can show the parent of a compound that is named as a salt.
readoutLabel: IC50 (µM)

Endpoint output: IC50 of CC(C)Oc1cc2nc(C34COC(C)(C3)C4)cn2cc1C(=O)Nc1ccn(C2CCCC2)n1 [Example 315, trifluoroacetate] . Value?
0.0045

I. CC(C)Oc1cc2nc(C34COC(C)(C3)C4)cn2cc1C(=O)Nc1cc2ccccn2n1 [Example 298, trifluoroacetate]
II. COc1cccc(NC(=O)c2cn3cc(C4CC(OC)C4)nc3cc2OC)n1 (stereo not drawn) [Example 8]
III. CC(C)Oc1cc2nc(C3C4COCC43)cn2cc1C(=O)Nc1cccc(C(F)F)n1 (stereo not drawn) [Example 253, hydrochloride]
IV. CCOc1cc2nc(C3CCOCC3)cn2cc1C(=O)Nc1cccc(C2CCOC2)n1 (stereo not drawn) [Example 391, hydrochloride]
Order the records by IC50, with each subsequent value no larger than the one before. A complete answer lists every label in the requested sequence.
I, II, IV, III
(I: 0.063 µM, II: 0.0263 µM, IV: 0.0034 µM, III: 0.0004 µM)

A. CC(C)Oc1cc2nc(C34COC(C)(C3)C4)c(F)n2cc1C(=O)Nc1ccn(C)n1 [Example 327, trifluoroacetate]
B. COc1cccc(NC(=O)c2cn3cc(C45CCC(C)(CC4)OC5)nc3cc2OC)n1 [Example 29]
C. CC(C)Oc1nc2nc(C34COC(C)(C3)C4)cn2cc1C(=O)Nc1cccc(C#N)c1F [Example 353, trifluoroacetate]
Order the records by IC50, with each subsequent value no larger than the one before. A complete answer lists every label in the requested sequence.
A, B, C
(A: 0.0372 µM, B: 0.0041 µM, C: 0.0025 µM)

A. COc1nc(C(=O)Nc2cccc3c2OCCC3)cn2cc(C3CCOCC3)nc12 [Example 205, trifluoroacetate]
B. COc1ncccc1NC(=O)c1cn2cc(C34COC(C)(C3)C4)nc2cc1OC(F)F [Example 332, trifluoroacetate]
C. CC(C)Oc1nc2nc(C34COC(C)(C3)C4)cn2cc1C(=O)Nc1cccc2c1OCC2 [Example 377, trifluoroacetate]
Order the records by IC50, with each subsequent value no larger than the one before. A complete answer lists every label in the requested sequence.
A, B, C
(A: 0.0341 µM, B: 0.0052 µM, C: 0.0003 µM)

1. COc1cccc(NC(=O)c2cn3cc(C4CC45CCCCO5)nc3cc2OC)n1 (stereo not drawn) [Example 9]
2. CC(C)Oc1nc2nc(C34COC(C)(C3)C4)cn2cc1C(=O)Nc1ccn(C2CCC2)n1 [Example 364, trifluoroacetate]
Just tell me: smaller IC50 value, 1 or 2 ? When you have decided, please share the label of that item.
2
(2: 0.0057 µM, 1: 0.0242 µM)

* * *

# system: IRAK4 (Homo sapiens)
# testMethodNotes: biochemical
readoutLabel: IC50 (nM)

Use the examples below as a reference point.
Form field - read-out: IC50; system: IRAK4 (Homo sapiens); submitted item: CC(C)Oc1nc2nc(C3C4COCC43)cn2cc1C(=O)Nc1ccn(C(F)F)n1 (centres unmarked) [Example 395]
5.7

Form field - read-out: IC50; system: IRAK4 (Homo sapiens); submitted item: COc1cc2nc(C3CCOCC3)cn2cc1C(=O)Nc1cscc1C [Example 135]
64.5

Form field - read-out: IC50; system: IRAK4 (Homo sapiens); submitted item: COc1nc(C(=O)Nc2cccc(C(F)F)n2)cn2cc(C34COC(C)(C3)C4)nc12 [Example 231]
7.1

Form field - read-out: IC50; system: IRAK4 (Homo sapiens); submitted item: CC(C)Oc1nc2nc([C@]34CC[C@](C)(C3)OC4)cn2cc1C(=O)Nc1cccn(C)c1=O (single isomer, unassigned) [Example 653]
1.1

1. COc1ncccc1NC(=O)c1cn2cc(C3CCOCC3)nc2c(OC)n1 [Example 208]
2. CC(C)Oc1cc2nc(C34CCC(C)(C3)OC4)cn2cc1C(=O)Nc1cccc(C(F)(F)F)c1 (centres unmarked) [Example 510]
Of 1 and 2 , whose reported IC50 is the larger number? When you have decided, please share the label of that item.
1
(1: 20.9 nM, 2: 1 nM)

P. COc1ncccc1NC(=O)c1cn2cc(C34COC(C)(C3)C4)nc2c(OC(C)C)n1 [Example 337]
Q. CCOc1nc(C(=O)Nc2cc(F)cnc2OC)cn2cc(C3CCCOC3)nc12 (centres unmarked) [Example 271]
Just tell me: smaller IC50 value, P or Q ? When you have decided, please share the label of that item.
P
(P: 0.4 nM, Q: 7.3 nM)
